target: α-amylase (Sus scrofa)
Sequence (P00690 16-511): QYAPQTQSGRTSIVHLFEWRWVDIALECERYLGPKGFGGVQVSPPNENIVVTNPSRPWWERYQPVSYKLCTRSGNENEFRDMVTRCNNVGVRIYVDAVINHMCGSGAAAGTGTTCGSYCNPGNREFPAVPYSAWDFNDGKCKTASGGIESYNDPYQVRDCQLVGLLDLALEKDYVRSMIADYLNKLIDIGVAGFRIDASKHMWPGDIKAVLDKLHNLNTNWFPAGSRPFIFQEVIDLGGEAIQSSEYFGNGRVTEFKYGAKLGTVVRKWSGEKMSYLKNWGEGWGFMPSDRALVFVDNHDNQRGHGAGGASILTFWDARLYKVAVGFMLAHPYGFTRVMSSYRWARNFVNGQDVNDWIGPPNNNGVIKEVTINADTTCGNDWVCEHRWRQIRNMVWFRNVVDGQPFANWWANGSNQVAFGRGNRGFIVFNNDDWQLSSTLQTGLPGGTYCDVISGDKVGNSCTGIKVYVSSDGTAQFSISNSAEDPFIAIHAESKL
pIC50: −log10 of the molar value.
readout type: pIC50

{"molecule": "CSSSC [C11, Dimethyltrisulfane]", "tested on": "α-amylase (Sus scrofa)", "numeric readout": 3.48}
